All figures here come from ChEMBL document CHEMBL2331148.

inhibition values for the molecules below.
Organism: Oryctolagus cuniculus
Experiment: Inhibition of rabbit plasma Lp-PLA2 at 10 nM by liquid scintillation counting
Assay type: cell-free
RECORDED ENDPOINT: inhibition (%)

1) C[C@@H]1CN(Cc2nnc(Cn3c(SCc4ccc(F)cc4)nc(=O)c4c3CCC4)n2Cc2ccc(-c3ccc(C(F)(F)F)cc3)cc2)C[C@H](C)O1: 16
2) CC(C)N(C)Cc1nnc(Cn2c(SCc3ccc(F)cc3)nc(=O)c3c2CCC3)n1Cc1ccc(-c2ccc(C(F)(F)F)cc2)cc1: 13
3) O=c1nc(SCc2ccc(F)cc2)n(Cc2nnc(C3CC3)n2Cc2ccc(-c3ccc(C(F)(F)F)cc3)cc2)c2c1CCC2: 34
4) CCS(=O)(=O)NCc1nnc(Cn2c(SCc3ccc(F)cc3)nc(=O)c3c2CCC3)n1Cc1ccc(-c2ccc(C(F)(F)F)cc2)cc1: 7
5) CCN(CC)CCN(Cc1ccc(-c2ccc(C(F)(F)F)cc2)cc1)C(=O)Cn1c(SCc2ccc(F)cc2)nc(=O)c2c1CCC2: 82
6) C[N+](C)(C)Cc1nnc(Cn2c(SCc3ccc(F)cc3)nc(=O)c3c2CCC3)n1Cc1ccc(-c2ccc(C(F)(F)F)cc2)cc1: 91
7) O=c1nc(SCc2ccc(F)cc2)n(Cc2nnc(CO)n2Cc2ccc(-c3ccc(C(F)(F)F)cc3)cc2)c2c1CCC2: 23
8) COC(=O)C(C)(C)N1CCN(Cc2nnc(Cn3c(SCc4ccc(F)cc4)nc(=O)c4c3CCC4)n2Cc2ccc(-c3ccc(C(F)(F)F)cc3)cc2)CC1: 15
9) O=c1nc(SCc2ccc(F)cc2)n(Cc2ncc(CN3CCCC3)n2Cc2ccc(-c3ccc(C(F)(F)F)cc3)cc2)c2c1CCC2: 10
10) CC(C)c1nnc(Cn2c(SCc3ccc(F)cc3)nc(=O)c3c2CCC3)n1Cc1ccc(-c2ccc(C(F)(F)F)cc2)cc1: 34
11) CN(Cc1ccc(F)cc1)Cc1nnc(Cn2c(SCc3ccc(F)cc3)nc(=O)c3c2CCC3)n1Cc1ccc(-c2ccc(C(F)(F)F)cc2)cc1: 10
12) CCN1CCN(Cc2nnc(Cn3c(SCc4ccc(F)cc4)nc(=O)c4c3CCC4)n2Cc2ccc(-c3ccc(C(F)(F)F)cc3)cc2)CC1: 20
13) Cc1nnc(Cn2c(SCc3ccc(F)cc3)nc(=O)c3c2CCC3)n1Cc1ccc(-c2ccc(C(F)(F)F)cc2)cc1: 10
14) CN(C)C1CCN(Cc2nnc(Cn3c(SCc4ccc(F)cc4)nc(=O)c4c3CCC4)n2Cc2ccc(-c3ccc(C(F)(F)F)cc3)cc2)CC1: 11

---

Species on record: Homo sapiens
Assay: Inhibition of human plasma Lp-PLA2 at 1 nM by liquid scintillation counting
Format: cell-free
inhibition values for the molecules below.
RECORDED ENDPOINT: inhibition (%)

1. CCN(CC)Cc1cnc(Cn2c(SCc3ccc(F)cc3)nc(=O)c3c2CCC3)n1Cc1ccc(-c2ccc(C(F)(F)F)cc2)cc1: 52
2. CN(C)Cc1nnc(Cn2c(SCc3ccc(F)cc3)nc(=O)c3c2CCC3)n1Cc1ccc(-c2ccc(C(F)(F)F)cc2)cc1: 62
3. C[N+](C)(Cc1ccc(F)cc1)Cc1nnc(Cn2c(SCc3ccc(F)cc3)nc(=O)c3c2CCC3)n1Cc1ccc(-c2ccc(C(F)(F)F)cc2)cc1: 95
4. C[C@@H]1CN(Cc2nnc(Cn3c(SCc4ccc(F)cc4)nc(=O)c4c3CCC4)n2Cc2ccc(-c3ccc(C(F)(F)F)cc3)cc2)C[C@H](C)O1: 23

---

Species: Oryctolagus cuniculus
Assay: Inhibition of rabbit plasma Lp-PLA2 at 100 nM by liquid scintillation counting
Assay type: cell-free
inhibition values for the molecules below.
RECORDED ENDPOINT: inhibition (%)

1. O=c1nc(SCc2ccc(F)cc2)n(Cc2nncn2Cc2ccc(-c3ccc(C(F)(F)F)cc3)cc2)c2c1CCC2: 67
2. CC(O)c1nnc(Cn2c(SCc3ccc(F)cc3)nc(=O)c3c2CCC3)n1Cc1ccc(-c2ccc(C(F)(F)F)cc2)cc1 (centres undefined): 90
3. C[C@@H]1CN(Cc2nnc(Cn3c(SCc4ccc(F)cc4)nc(=O)c4c3CCC4)n2Cc2ccc(-c3ccc(C(F)(F)F)cc3)cc2)C[C@H](C)O1: 76
4. CCS(=O)(=O)NCc1nnc(Cn2c(SCc3ccc(F)cc3)nc(=O)c3c2CCC3)n1Cc1ccc(-c2ccc(C(F)(F)F)cc2)cc1: 75
5. CCN(CC)Cc1cnc(Cn2c(SCc3ccc(F)cc3)nc(=O)c3c2CCC3)n1Cc1ccc(-c2ccc(C(F)(F)F)cc2)cc1: 88
6. C[N+](C)(Cc1ccc(F)cc1)Cc1nnc(Cn2c(SCc3ccc(F)cc3)nc(=O)c3c2CCC3)n1Cc1ccc(-c2ccc(C(F)(F)F)cc2)cc1: 97
7. CC(C)c1nnc(Cn2c(SCc3ccc(F)cc3)nc(=O)c3c2CCC3)n1Cc1ccc(-c2ccc(C(F)(F)F)cc2)cc1: 91
8. CC(=O)NCc1nnc(Cn2c(SCc3ccc(F)cc3)nc(=O)c3c2CCC3)n1Cc1ccc(-c2ccc(C(F)(F)F)cc2)cc1: 67
9. C[N+](C)(C)Cc1nnc(Cn2c(SCc3ccc(F)cc3)nc(=O)c3c2CCC3)n1Cc1ccc(-c2ccc(C(F)(F)F)cc2)cc1: 93

---

inhibition values for the compounds below.
Organism: Oryctolagus cuniculus
Experiment: Inhibition of rabbit plasma Lp-PLA2 at 10 nM by liquid scintillation counting
Assay type: cell-free
RECORDED ENDPOINT: inhibition (%)

1. CCCc1nnc(Cn2c(SCc3ccc(F)cc3)nc(=O)c3c2CCC3)n1Cc1ccc(-c2ccc(C(F)(F)F)cc2)cc1: 25
2. CN(C)Cc1cnc(Cn2c(SCc3ccc(F)cc3)nc(=O)c3c2CCC3)n1Cc1ccc(-c2ccc(C(F)(F)F)cc2)cc1: 13
3. CCN(CC)Cc1nnc(Cn2c(SCc3ccc(F)cc3)nc(=O)c3c2CCC3)n1Cc1ccc(-c2ccc(C(F)(F)F)cc2)cc1: 21
4. C[N+](C)(Cc1ccc(F)cc1)Cc1cnc(Cn2c(SCc3ccc(F)cc3)nc(=O)c3c2CCC3)n1Cc1ccc(-c2ccc(C(F)(F)F)cc2)cc1: 97
5. CC(=O)NCc1nnc(Cn2c(SCc3ccc(F)cc3)nc(=O)c3c2CCC3)n1Cc1ccc(-c2ccc(C(F)(F)F)cc2)cc1: 8
6. O=c1nc(SCc2ccc(F)cc2)n(Cc2ncc(CN3CCCCC3)n2Cc2ccc(-c3ccc(C(F)(F)F)cc3)cc2)c2c1CCC2: 11
7. CN(C)Cc1nnc(Cn2c(SCc3ccc(F)cc3)nc(=O)c3c2CCC3)n1Cc1ccc(-c2ccc(C(F)(F)F)cc2)cc1: 21

---

inhibition values for the compounds below.
Species on record: Oryctolagus cuniculus
Test: Inhibition of rabbit plasma Lp-PLA2 at 100 nM by liquid scintillation counting
Format: cell-free
RECORDED ENDPOINT: inhibition (%)

1. CN(C)Cc1cnc(Cn2c(SCc3ccc(F)cc3)nc(=O)c3c2CCC3)n1Cc1ccc(-c2ccc(C(F)(F)F)cc2)cc1: 87
2. COC(=O)C(C)(C)N1CCN(Cc2nnc(Cn3c(SCc4ccc(F)cc4)nc(=O)c4c3CCC4)n2Cc2ccc(-c3ccc(C(F)(F)F)cc3)cc2)CC1: 67
3. Cc1nnc(Cn2c(SCc3ccc(F)cc3)nc(=O)c3c2CCC3)n1Cc1ccc(-c2ccc(C(F)(F)F)cc2)cc1: 79
4. CN(C)Cc1nnc(Cn2c(SCc3ccc(F)cc3)nc(=O)c3c2CCC3)n1Cc1ccc(-c2ccc(C(F)(F)F)cc2)cc1: 88
5. O=c1nc(SCc2ccc(F)cc2)n(Cc2nccn2Cc2ccc(-c3ccc(C(F)(F)F)cc3)cc2)c2c1CCC2: 17
6. CN(Cc1nnc(Cn2c(SCc3ccc(F)cc3)nc(=O)c3c2CCC3)n1Cc1ccc(-c2ccc(C(F)(F)F)cc2)cc1)C1CC1: 86
7. O=c1nc(SCc2ccc(F)cc2)n(Cc2ncc(CN3CCCCC3)n2Cc2ccc(-c3ccc(C(F)(F)F)cc3)cc2)c2c1CCC2: 86

---

Species on record: Homo sapiens
Assay: Inhibition of human plasma Lp-PLA2 at 1 nM by liquid scintillation counting
Type: cell-free
inhibition values for the compounds below.
RECORDED ENDPOINT: inhibition

1) O=c1nc(SCc2ccc(F)cc2)n(Cc2nnc(CO)n2Cc2ccc(-c3ccc(C(F)(F)F)cc3)cc2)c2c1CCC2: 58%
2) C[N+](C)(Cc1ccc(F)cc1)Cc1cnc(Cn2c(SCc3ccc(F)cc3)nc(=O)c3c2CCC3)n1Cc1ccc(-c2ccc(C(F)(F)F)cc2)cc1: 85%
3) CC(C)N(C)Cc1nnc(Cn2c(SCc3ccc(F)cc3)nc(=O)c3c2CCC3)n1Cc1ccc(-c2ccc(C(F)(F)F)cc2)cc1: 35%
4) CCCc1nnc(Cn2c(SCc3ccc(F)cc3)nc(=O)c3c2CCC3)n1Cc1ccc(-c2ccc(C(F)(F)F)cc2)cc1: 65%
5) CC(C)c1nnc(Cn2c(SCc3ccc(F)cc3)nc(=O)c3c2CCC3)n1Cc1ccc(-c2ccc(C(F)(F)F)cc2)cc1: 71%
6) CC(O)c1nnc(Cn2c(SCc3ccc(F)cc3)nc(=O)c3c2CCC3)n1Cc1ccc(-c2ccc(C(F)(F)F)cc2)cc1 (configuration not stated): 68%
7) Cc1nnc(Cn2c(SCc3ccc(F)cc3)nc(=O)c3c2CCC3)n1Cc1ccc(-c2ccc(C(F)(F)F)cc2)cc1: 11%
